Values were extracted from patent US10301305B2.

assay.target: E. feacalis DltA (Enterococcus faecalis, UniProt Q830N0)
Sequence (Q830N0 1-506): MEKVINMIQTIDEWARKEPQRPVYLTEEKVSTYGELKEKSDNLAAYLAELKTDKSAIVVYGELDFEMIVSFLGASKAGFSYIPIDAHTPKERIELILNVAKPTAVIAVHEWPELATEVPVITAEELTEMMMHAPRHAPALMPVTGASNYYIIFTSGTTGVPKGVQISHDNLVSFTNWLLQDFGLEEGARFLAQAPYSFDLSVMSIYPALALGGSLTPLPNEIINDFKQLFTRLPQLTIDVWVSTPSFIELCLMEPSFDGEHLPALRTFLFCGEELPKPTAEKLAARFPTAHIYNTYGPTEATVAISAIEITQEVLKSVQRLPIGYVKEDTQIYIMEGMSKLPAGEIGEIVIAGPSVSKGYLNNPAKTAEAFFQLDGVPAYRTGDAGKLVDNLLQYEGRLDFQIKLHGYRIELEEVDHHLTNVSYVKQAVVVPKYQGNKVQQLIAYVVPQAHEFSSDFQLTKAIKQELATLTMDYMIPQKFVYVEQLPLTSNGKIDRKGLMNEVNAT
assay.overview: in vitro DltA activity assay (luminescence), E. faecalis DltA
Type: biochemical
applied.conditions: recombinant DltA, 30 min pre-incubation, 0.5 mM D-Alanine, 0.5-5 μM ATP; read-out: E. feacalis DltA IC50
parameter.measured: pIC50
Numbers only, as −log10 of the molar value.

Example entries and their recorded answers appear below.
molecule | pIC50
COCCn1cnc2cc(-c3cc(N(C)CCN(C)C)c(C(N)=O)c4[nH]cnc34)ccc21 | 7.16
CN1CCC[C@@H]1COc1cc(-c2ccc3c(c2)ncn3C2CCCOC2)c2nc[nH]c2c1C(N)=O (stereo partly shown) | 8.85
OCC1(CO)CCN(c2cc(-c3ccc4c(c3)ncn4C3CCCCC3)c3nc[nH]c3n2)CC1 | 7.74

Let us examine a further case.
stdin: Give the measured pIC50 of `N#Cc1c(N2CCC(CO)(CO)CC2)cc(-c2ccc3c(c2)ncn3C2CCCCC2)c2nc[nH]c12` .
stdout: 6.96

====

assay.target: E. feacium DltA (Enterococcus faecium)
Sequence (Q3XZT7 1-504): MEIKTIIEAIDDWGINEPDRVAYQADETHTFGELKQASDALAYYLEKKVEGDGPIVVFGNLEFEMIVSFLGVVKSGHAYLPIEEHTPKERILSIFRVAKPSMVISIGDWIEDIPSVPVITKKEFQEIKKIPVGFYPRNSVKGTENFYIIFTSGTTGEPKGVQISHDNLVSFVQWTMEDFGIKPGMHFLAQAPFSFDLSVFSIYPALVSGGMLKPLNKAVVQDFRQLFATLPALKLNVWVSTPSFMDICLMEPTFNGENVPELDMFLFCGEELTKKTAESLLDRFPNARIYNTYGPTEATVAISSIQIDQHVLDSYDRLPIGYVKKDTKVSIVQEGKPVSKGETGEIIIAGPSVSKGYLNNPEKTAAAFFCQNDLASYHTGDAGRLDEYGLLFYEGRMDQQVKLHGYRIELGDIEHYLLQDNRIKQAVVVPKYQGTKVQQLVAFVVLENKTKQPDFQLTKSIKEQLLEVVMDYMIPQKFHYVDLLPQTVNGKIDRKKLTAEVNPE
assay.overview: in vitro DltA activity assay (luminescence), E. faecium DltA
Type: biochemical
applied.conditions: recombinant DltA, 30 min pre-incubation, 0.5 mM D-Alanine, 0.5-5 μM ATP; read-out: E. feacium DltA IC50
parameter.measured: pIC50
Numbers only, as −log10 of the molar value.

Use the examples below as a reference point.
molecule | pIC50
CN1CCC[C@@H]1COc1cc(-c2cnc3c(c2)CCCO3)c2nc[nH]c2c1C(N)=O | 7.44
CN(CCN1CCCC1)c1cc(-c2cnc3c(c2)CCCO3)c2nc[nH]c2c1C(N)=O | 6.80
CN(CCO)c1cc(-c2ccc3c(c2)ncn3C2CCCCC2)c2nc[nH]c2c1C(N)=O | 7.57
CN1CCCC(Oc2cc(-c3cnc4c(c3)CCCO4)c3nc[nH]c3c2C(N)=O)C1 (stereo not shown) | 6.55
OCC1(CO)CCN(c2cc3[nH]cnc3c(-c3ccc4c(c3)ncn4C3CCCCC3)n2)CC1 | 6.77
CN(C)CCN(C)c1cc(-c2cnc3c(c2)CCCO3)c2nc[nH]c2c1C(N)=O | 6.92

I'm hoping you can list pIC50 for every molecule here, please.
1. CN1CCC[C@@H]1COc1cc(-c2ccc3c(c2)ncn3C2CCCCC2)c2nc[nH]c2c1C(N)=O
2. CN1CCN(c2cc(-c3ccc4c(c3)ncn4C3CCCCC3)c3nc[nH]c3c2C(N)=O)CC1
3. CN(C)CCN(CCO)c1cc(-c2ccc3c(c2)ncn3C2CCCCC2)c2nc[nH]c2c1C(N)=O
4. CN1CCC[C@@H]1COc1cc(-c2ccc3c(c2)ncn3C2CCCOC2)c2nc[nH]c2c1C(N)=O (stereo partly shown)

stdout:
[8.44, 7.12, 6.64, 8.24]

// for each molecule below, give its pIC50
1. O=C(NO)c1c(F)cc(-c2ccc3c(c2)ncn3C2CCCCC2)c2nc[nH]c12
2. CN(C)C1CCCN(c2cc(-c3cnc4c(c3)CCCO4)c3nc[nH]c3c2C(N)=O)C1 (stereo not shown)
3. CN(C)CCN(C)c1cc(-c2ccc3scnc3c2)c2nc[nH]c2c1C(N)=O
4. OCC1(CO)CCN(c2cc(-c3ccc4c(c3)ncn4C3CCCCC3)c3nc[nH]c3n2)CC1
5. CN(C)CCN(C)c1cc(-c2ccc(N(C)C)nc2)c2nc[nH]c2c1C(N)=O
6. CCn1cnc2cc(-c3nc(N(C)CCN(C)C)c(C(N)=O)c4[nH]cnc34)ccc21

stdout:
[5.96, 7.17, 6.92, 7.54, 7.52, 6.10]
